Test system: human primary airway epithelial cells
Assay: IL-6 release from IFNγ + TNFα-stimulated human primary airway epithelial cells
Format: cell-based
Conditions: IFNγ + TNFα, n = 7
experimental-endpoint: pIC50
Keep in mind that pIC50 stands for -log10 of concentration in molar terms.

Looking up C[C@@H]1CCN(C(=O)N2CCCC2)C[C@@H]1N(C)c1ncnc2[nH]ccc12 [PF956980] , I see its pIC50 listed as 4.94

----------
Test system: BEAS-2B cells
Assay: Release of CXCL9, CXCL10 and CXCL11 from BEAS-2B cells (ELISA), inhibitors added 1h before stimulus
Assay type: cell-based, human
Details: BEAS-2B, pre-treated 1h, IFNγ+TNFα (10ng/ml) 20h; read-out: IC50, release of CXCL9
experimental-endpoint: IC50 (nM)
Write the value in nM as a bare number.

Looking up C[C@@H]1CCN(C(=O)N2CCCC2)C[C@@H]1N(C)c1ncnc2[nH]ccc12 [PF956980] , I see its IC50 listed as 600

----------
System: human primary airway epithelial cells
Experiment: Release of CXCL9, CXCL10 and CXCL11 from human primary airway epithelial cells (ELISA)
Type: cell-based
Conditions: Homo sapiens, Epithelial cell, primary cells from COPD patients, pre-treated 1h, IFNγ +TNFα (10 ng/ml) 20h; read-out: EC50, release of CXCL10
experimental-endpoint: pEC50
Keep in mind that pEC50 stands for -log10 of concentration in molar terms.

Tested on human primary airway epithelial cells, the item CCc1cc(O)ccc1-c1ccc2c(-c3nc4ccccc4[nH]3)n[nH]c2c1 showed pEC50 equal to 7.54

----------
System: human primary airway epithelial cells
Assay: Release of CXCL9, CXCL10 and CXCL11 from human primary airway epithelial cells (ELISA)
Type: cell-based
Conditions: primary cells from COPD patients, pre-treated 1h, IFNγ +TNFα (10 ng/ml) 20h; read-out: EC50, release of CXCL10
experimental-endpoint: pEC50
Keep in mind that pEC50 stands for -log10 of concentration in molar terms.

Looking up C[C@@H]1CCN(C(=O)N2CCCC2)C[C@@H]1N(C)c1ncnc2[nH]ccc12 , I see its pEC50 listed as 5.74
